# System: pS6 MDA-MB-468
# EXPERIMENT SUMMARY: Cellular Activity Assay (phospho-S6 in MDA-MB-468 cells)
# Format: cell-based
# MEASUREMENT CONDITIONS: Homo sapiens, 2 hr compound incubation, percent pS6-positive cells
# Method: MDA-MB-468 cells were grown in DMEM containing glutamine supplemented with 10% Fetal Bovine Serum (FBS) and 1× antibiotics. Cells were maintained by splitting 1:3 twice a week. […] Then the wells were washed with 3×80 uL PBS. […] Plates were read on the Acumen Explorer. Red and green cell populations were determined using controls. The number of green cells (pS6) and total number of cells (red) were then counted and the percentage of green cells was calculated. […]
pIC50: −log10 of the molar value.

CHEM SMILES: NC(=O)c1cccc2c(N[C@H](CN3CCC3)c3ccc(F)c(F)c3)ncnc12
pIC50: 7.13

CHEM SMILES: NC(=O)c1cccc2c(N[C@H](CN3CCC3)c3ccc(F)cc3Cl)ncnc12
pIC50: 5.99

CHEM SMILES: NC(=O)c1cccc2c(N[C@H](CN3CCC3)c3ccc(C(F)(F)F)c(Cl)c3)ncnc12
pIC50: 8.10

CHEM SMILES: NC(=O)c1cccc2c(N[C@H](CN3CCC3)c3ccc4c(c3)OCO4)ncnc12
pIC50: 7.17
